FYI, the data here is from patent US20070082903A1.

test: repeated oral administration toxicity test, SMP-114 concentration in serum (HPLC-fluorescence); format: in vivo; details: both sexes, Crj:CD(SD), rat, rats, 10 mg/kg oral once a day for one month, read-out: AUC0-24
attribute measured: AUC(0-t) (ng·h/mL)
Numbers only, in ng·h/mL.

Reported AUC(0-t) for C[C@@H](c1ccc(-c2ccccc2)c(F)c1)c1cc(/N=C(/N)N2CCOCC2)on1 [SMP-114] was 7160

###

Experiment: repeated oral administration toxicity test, SMP-114 concentration in serum (HPLC-fluorescence)
Format: in vivo
Conditions: both sexes, Crj:CD(SD), rat, rats, 6 mg/kg oral once a day for 6 months, read-out: AUC0-24
Method: Next, a repeated oral administration toxicity test on Crj:CD(SD) rats aged 5 weeks was carried out for each of one month and six months (once-a-day oral administration in both cases). […] The SMP-114 concentration in serum was measured by an HPLC-fluorescence method (fluorescence wavelength: 319 nm) after extracting SMP-114 from each sample with diethyl ether under slight acidic conditions (pH 4.7).
attribute measured: AUC(0-t) (ng·h/mL)
One number for each entry, in ng·h/mL.

Item: `C[C@@H](c1ccc(-c2ccccc2)c(F)c1)c1cc(/N=C(/N)N2CCOCC2)on1` | AUC(0-t): 3250
